System: HD-MB03
Assay: Anti-proliferative activity against human HD-MB03 cells assessed as reduction in cell viability incubated for 120 hrs by MTT assay
Assay type: functional, cell-based
Conditions: HD-MB03, 120 h

CHEMICAL STRUCTURE: Cc1sc2c(c1C)C(c1ccc(Cl)cc1)=N[C@@H](CC(=O)OC(C)(C)C)c1nnc(C)n1-2
IC50 [nM]: 153

* * *

System: UW228
Assay: Anti-proliferative activity against human UW228 cells assessed as reduction in cell viability incubated for 120 hrs by MTT assay
Assay type: functional, cell-based
Conditions: UW228, 120 h

CHEMICAL STRUCTURE: Cc1sc2c(c1C)C(c1ccc(Cl)cc1)=N[C@@H](CC(=O)OC(C)(C)C)c1nnc(C)n1-2
ASSAY TARGET: UW228
IC50: 897 nM

* * *

Test system: D283 Med
Assay: Anti-proliferative activity against human D283 cells assessed as reduction in cell viability incubated for 120 hrs by MTT assay
Format: functional, cell-based
ASSAY METRIC: IC50 (nM)

CHEMICAL STRUCTURE: Cc1sc2c(c1C)C(c1ccc(Cl)cc1)=N[C@@H](CC(=O)OC(C)(C)C)c1nnc(C)n1-2
ASSAY METRIC: IC50
REPORTED: 316

* * *

System: D283 Med
Test: Anti-proliferative activity against human D283 cells assessed as reduction in cell viability incubated for 96 hrs by MTT assay
Format: functional, cell-based
ASSAY METRIC: IC50 (nM)

CHEMICAL STRUCTURE: Cc1sc2c(c1C)C(c1ccc(Cl)cc1)=N[C@@H](CC(=O)OC(C)(C)C)c1nnc(C)n1-2
ASSAY METRIC: IC50
REPORTED: 256
